Experiment: T 1/2 at a dose of 10 mg/Kg administered perorally in female hanover-wistar rat
Type: ADME, organism-based
Details: in vivo, po
measurement_type: half-life (h)
Answer format: numeric, h implied, no suffix.

What half-life value was documented for this compound, `C[C@H](O)CNc1cc(-c2[nH]c3cccnc3c2-c2ccc(F)cc2)ccn1` ?
1.5

----------
Assay: T max at a dose of 10 mg/Kg administered intravenously in female hanover-wistar rat
Type: ADME, organism-based
Settings: in vivo, iv
measurement_type: Tmax

What Tmax value was documented for this molecule, `C[C@H](O)CNc1cc(-c2[nH]c3cccnc3c2-c2ccc(F)cc2)ccn1` ?
< 1 h

----------
Test: T max at a dose of 10 mg/Kg administered to female hanover-wistar rat per orally
Format: ADME, organism-based
Details: in vivo, po
measurement_type: Tmax (h)
Answer format: numeric, h implied, no suffix.

What Tmax value was documented for this compound, `C[C@@H](O)CNc1cc(-c2[nH]c3cccnc3c2-c2ccc(F)cc2)ccn1` ?
1

----------
Biological target: Inhibitor of nuclear factor kappa-B kinase subunit beta (Homo sapiens, UniProt O14920)
Sequence (O14920 whole entry): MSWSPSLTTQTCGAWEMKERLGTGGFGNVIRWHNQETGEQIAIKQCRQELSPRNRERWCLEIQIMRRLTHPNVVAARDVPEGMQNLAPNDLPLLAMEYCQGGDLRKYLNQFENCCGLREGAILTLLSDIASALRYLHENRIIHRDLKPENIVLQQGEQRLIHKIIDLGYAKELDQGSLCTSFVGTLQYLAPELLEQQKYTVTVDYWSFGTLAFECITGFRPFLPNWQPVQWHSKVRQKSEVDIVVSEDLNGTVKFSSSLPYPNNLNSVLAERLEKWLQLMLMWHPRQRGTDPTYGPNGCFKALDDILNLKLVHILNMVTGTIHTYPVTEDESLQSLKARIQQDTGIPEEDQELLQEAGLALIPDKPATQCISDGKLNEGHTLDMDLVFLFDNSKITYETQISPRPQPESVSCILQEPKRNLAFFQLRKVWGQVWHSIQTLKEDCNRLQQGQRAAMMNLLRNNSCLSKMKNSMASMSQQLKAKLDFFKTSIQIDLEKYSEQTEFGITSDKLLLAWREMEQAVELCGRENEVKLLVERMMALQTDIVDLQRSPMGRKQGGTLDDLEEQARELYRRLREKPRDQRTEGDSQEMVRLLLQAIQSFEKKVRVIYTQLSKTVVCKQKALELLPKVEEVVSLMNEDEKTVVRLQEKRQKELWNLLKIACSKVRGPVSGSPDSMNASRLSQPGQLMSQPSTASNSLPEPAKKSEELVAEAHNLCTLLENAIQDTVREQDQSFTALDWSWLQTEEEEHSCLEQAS
Test: Inhibition of I-kappa-B-kinase beta
pIC50: −log10 of the molar value.
measurement_type: pIC50

What pIC50 value was documented for this molecule, `C[C@H](O)CNc1cc(-c2[nH]c3cccnc3c2-c2ccc(F)cc2)ccn1` ?
< 4.52

----------
measurement_type: IC50

GET /values?readout=IC50&system=Tyrosine-protein kinase Fyn (Homo sapiens, UniProt P06241)&item= `C[C@H](O)CNc1cc(-c2[nH]c3cccnc3c2-c2ccc(F)cc2)ccn1`
> 10 µM

----------
Assay: Partition coefficient (logP)
Type: physicochemical
Settings: octanol/water
measurement_type: logP
Form rule: numeric answer, no unit written next to it.

What logP value was documented for this compound, `C[C@H](O)CNc1cc(-c2[nH]c3cccnc3c2-c2ccc(F)cc2)ccn1` ?
3.5

----------
Assay: CL at a dose of 10 mg/Kg administered intravenously in female hanover-wistar rat
Type: ADME, organism-based
Conditions: in vivo, iv
measurement_type: clearance (mL/min/kg)
Answer format: numeric, mL/min/kg implied, no suffix.

What clearance value was documented for this compound, `C[C@H](O)CNc1cc(-c2[nH]c3cccnc3c2-c2ccc(F)cc2)ccn1` ?
20

----------
Experiment: C max at a dose of 10 mg/Kg administered to female hanover-wistar rat intravenously
Format: ADME, organism-based
Set-up: dose 10 mg/Kg, route intravenous
Settings: in vivo, iv
measurement_type: Cmax (µM)
Answer format: numeric, µM implied, no suffix.

What Cmax value was documented for this molecule, `C[C@@H](O)CNc1cc(-c2[nH]c3cccnc3c2-c2ccc(F)cc2)ccn1` ?
8.8

----------
Experiment: T 1/2 at a dose of 10 mg/Kg administered to female hanover-wistar rat intravenously
Format: ADME, organism-based
Settings: in vivo, iv
measurement_type: half-life (h)
Answer format: numeric, h implied, no suffix.

What half-life value was documented for this molecule, `C[C@@H](O)CNc1cc(-c2[nH]c3cccnc3c2-c2ccc(F)cc2)ccn1` ?
2.9

----------
Assay: T 1/2 at a dose of 10 mg/Kg administered to female hanover-wistar rat per orally
Format: ADME, organism-based
Conditions: in vivo, po
measurement_type: half-life (h)
Answer format: numeric, h implied, no suffix.

What half-life value was documented for this molecule, `C[C@@H](O)CNc1cc(-c2[nH]c3cccnc3c2-c2ccc(F)cc2)ccn1` ?
1.5

----------
Experiment: T 1/2 at a dose of 10 mg/Kg administered intravenously in female hanover-wistar rat
Format: ADME, organism-based
Details: in vivo, iv
measurement_type: half-life (h)
Answer format: numeric, h implied, no suffix.

What half-life value was documented for this compound, `C[C@H](O)CNc1cc(-c2[nH]c3cccnc3c2-c2ccc(F)cc2)ccn1` ?
1.1

----------
Target: MAP kinase-activated protein kinase 2 (Homo sapiens)
Sequence (P49137 whole entry): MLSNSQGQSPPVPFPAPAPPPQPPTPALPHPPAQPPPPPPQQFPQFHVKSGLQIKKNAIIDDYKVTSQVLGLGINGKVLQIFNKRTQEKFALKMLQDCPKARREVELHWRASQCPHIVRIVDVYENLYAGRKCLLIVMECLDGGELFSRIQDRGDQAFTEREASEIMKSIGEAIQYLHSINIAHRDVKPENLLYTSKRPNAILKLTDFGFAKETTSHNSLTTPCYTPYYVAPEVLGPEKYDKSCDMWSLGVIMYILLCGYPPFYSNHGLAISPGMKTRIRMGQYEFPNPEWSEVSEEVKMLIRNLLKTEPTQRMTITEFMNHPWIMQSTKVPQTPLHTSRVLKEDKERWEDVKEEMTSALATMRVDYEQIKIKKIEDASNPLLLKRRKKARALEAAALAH
Assay: Inhibition of MAP kinase-activated protein kinase 2
measurement_type: IC50

What IC50 value was documented for this compound, `C[C@H](O)CNc1cc(-c2[nH]c3cccnc3c2-c2ccc(F)cc2)ccn1` ?
> 30 µM

----------
Molecular target: Cyclin-dependent kinase 2 (Homo sapiens, UniProt P24941)
measurement_type: IC50

What IC50 value was documented for this molecule, `C[C@H](O)CNc1cc(-c2[nH]c3cccnc3c2-c2ccc(F)cc2)ccn1` ?
> 25 µM

----------
Experiment: Bioavailability at a dose of 10 mg/Kg administered to female hanover-wistar rat per orally
Type: ADME, organism-based
Conditions: in vivo, po
measurement_type: bioavailability (%)
Answer format: numeric, % implied, no suffix.

What bioavailability value was documented for this compound, `C[C@@H](O)CNc1cc(-c2[nH]c3cccnc3c2-c2ccc(F)cc2)ccn1` ?
30.5

----------
Would you kindly list inhibition for each of these molecules?
Target: Mitogen-activated protein kinase 14 (Rattus norvegicus)
Experiment: In vivo percent inhibition of LPS stimulated TNF alpha synthesis in rat at a concentration of 30 mg/kg
Type: functional, organism-based
Parameters: dose 30 mg/kg
Answer format: numeric, % implied, no suffix.

What inhibition value was documented for this molecule, `C[C@@H](O)CNc1cc(-c2[nH]c3cccnc3c2-c2ccc(F)cc2)ccn1` ?
76

What inhibition value was documented for this molecule, `Fc1ccc(-c2c(-c3ccncc3)oc3cccnc23)cc1` ?
44

What inhibition value was documented for this molecule, `CCn1c(-c2ccncc2)c(-c2ccc(F)cc2)c2ncccc21` ?
41

What inhibition value was documented for this molecule, `O=C(O)Cn1c(-c2ccncc2)c(-c2ccc(F)cc2)c2ncccc21` ?
50

What inhibition value was documented for this molecule, `OCCNc1cc(-c2[nH]c3cccnc3c2-c2ccc(F)cc2)ccn1` ?
88

What inhibition value was documented for this molecule, `Fc1ccc(-c2c(-c3ccncc3)n(CCN3CCCC3)c3cccnc23)cc1` ?
86

What inhibition value was documented for this molecule, `Fc1ccc(-c2c(-c3ccncc3)n(CCN3CCCCC3)c3cccnc23)cc1` ?
75

What inhibition value was documented for this molecule, `Fc1ccc(-c2c(-c3ccncc3)[nH]c3cccnc23)cc1` ?
46

What inhibition value was documented for this molecule, `OCCCCNc1cc(-c2[nH]c3cccnc3c2-c2ccc(F)cc2)ccn1` ?
69

What inhibition value was documented for this molecule, `Fc1ccc(-c2c(-c3ccncc3)[nH]c3cncnc23)cc1` ?
26

What inhibition value was documented for this molecule, `Fc1ccc(-c2c(-c3ccncc3)[nH]c3nccnc23)cc1` ?
98

What inhibition value was documented for this molecule, `Fc1ccc(-c2c(-c3ccncc3)n(CCN3CCOCC3)c3cccnc23)cc1` ?
79

What inhibition value was documented for this molecule, `Cn1c(-c2ccncc2)c(-c2ccc(F)cc2)c2ncccc21` ?
53

What inhibition value was documented for this molecule, `C[C@H](O)CNc1cc(-c2[nH]c3cccnc3c2-c2ccc(F)cc2)ccn1` ?
88

----------
Experiment: C max at a dose of 10 mg/Kg administered intravenously in female hanover-wistar rat
Type: ADME, organism-based
Set-up: dose 10 mg/Kg, route intravenous
Details: in vivo, iv
measurement_type: Cmax (µM)
Answer format: numeric, µM implied, no suffix.

What Cmax value was documented for this compound, `C[C@H](O)CNc1cc(-c2[nH]c3cccnc3c2-c2ccc(F)cc2)ccn1` ?
10.3

----------
Assay: AUC at a dose of 10 mg/Kg administered perorally in female hanover-wistar rat
Format: ADME, organism-based
Conditions: plasma, po
measurement_type: AUC (µM·h)
Answer format: numeric, µM·h implied, no suffix.

What AUC value was documented for this compound, `C[C@H](O)CNc1cc(-c2[nH]c3cccnc3c2-c2ccc(F)cc2)ccn1` ?
20
